- test-summary: Saturated solubility of AGN in the vehicle of the gels (HPLC), with Student's t-test against gel B
- Assay type: physicochemical
- assay-setup: gel vehicle with propionic acid, hexylene glycol 2%, polysorbate 40 0.2%, poloxamer 407 0.4%; propionic acid for carbomer

entry-smiles: CCOC(=O)c1ccc(C#Cc2ccc3c(c2)C(C)(C)CCS3)nc1
readout-units: µg/mL
solubility: 102

* * *

- test-summary: Saturated solubility of AGN in the vehicle of the gels (HPLC), with Student's t-test against gel B
- Format: physicochemical
- assay-setup: gel vehicle with propionic acid, hexylene glycol 0%, polysorbate 40 0.4%, poloxamer 407 0.4%; propionic acid for carbomer

molecule: CCOC(=O)c1ccc(C#Cc2ccc3c(c2)C(C)(C)CCS3)nc1 [AGN]
readout-units: µg/mL
solubility: 86.7
